Recorded pIC50 for the following molecules
- Assay Target: CYP3A4 (Homo sapiens, UniProt P08684)
- Sequence (P08684 2-503 limits assumed): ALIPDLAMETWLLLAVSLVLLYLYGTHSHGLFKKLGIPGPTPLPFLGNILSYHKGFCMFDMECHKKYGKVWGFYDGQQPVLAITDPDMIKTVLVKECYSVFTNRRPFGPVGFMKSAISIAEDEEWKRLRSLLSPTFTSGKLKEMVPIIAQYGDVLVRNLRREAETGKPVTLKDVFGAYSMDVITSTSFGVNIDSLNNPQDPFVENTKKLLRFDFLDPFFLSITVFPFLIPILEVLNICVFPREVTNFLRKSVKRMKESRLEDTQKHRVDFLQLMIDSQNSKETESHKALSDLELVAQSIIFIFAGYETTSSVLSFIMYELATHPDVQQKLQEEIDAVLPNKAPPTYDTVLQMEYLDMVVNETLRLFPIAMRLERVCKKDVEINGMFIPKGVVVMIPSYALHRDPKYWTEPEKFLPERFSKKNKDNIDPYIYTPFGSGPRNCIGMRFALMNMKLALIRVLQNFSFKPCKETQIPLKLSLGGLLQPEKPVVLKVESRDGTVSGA
- Assay Name: IC50 and IC50 shift on CYP3A4 marker reaction (midazolam 1-hydroxylation) in HLM
- Type: in vitro ADME
- Set-up: tissue Corning Inc; host or cells: pooled human liver microsomes (150 donors)
- Condition Details: 30 min pre-incubation in the presence of NADPH, read-out: IC50 NADPH (+) (95% Confidence Interval)
pIC50 field: float, defined as -log10 of concentration (mol/L).

>>> print(df.to_string())
                                   molecule  reported_measurement
0  C[C@@H](c1ncnc(O)c1F)[C@](O)(Cn1cncn1)c1ccc(F)cc1F [OH–VRC, hydroxyvoriconazole]                  5.80

// next item, pIC50 requested
Form field: reported pIC50 of C[C@@H](c1nc[n+]([O-])cc1F)[C@](O)(Cn1cncn1)c1ccc(F)cc1F [NO, voriconazole N-oxide] 5.54

* * *

Recorded Ki for the following molecules
- Assay Target: CYP2C9 (Homo sapiens, UniProt P11712)
- Sequence (P11712 whole entry): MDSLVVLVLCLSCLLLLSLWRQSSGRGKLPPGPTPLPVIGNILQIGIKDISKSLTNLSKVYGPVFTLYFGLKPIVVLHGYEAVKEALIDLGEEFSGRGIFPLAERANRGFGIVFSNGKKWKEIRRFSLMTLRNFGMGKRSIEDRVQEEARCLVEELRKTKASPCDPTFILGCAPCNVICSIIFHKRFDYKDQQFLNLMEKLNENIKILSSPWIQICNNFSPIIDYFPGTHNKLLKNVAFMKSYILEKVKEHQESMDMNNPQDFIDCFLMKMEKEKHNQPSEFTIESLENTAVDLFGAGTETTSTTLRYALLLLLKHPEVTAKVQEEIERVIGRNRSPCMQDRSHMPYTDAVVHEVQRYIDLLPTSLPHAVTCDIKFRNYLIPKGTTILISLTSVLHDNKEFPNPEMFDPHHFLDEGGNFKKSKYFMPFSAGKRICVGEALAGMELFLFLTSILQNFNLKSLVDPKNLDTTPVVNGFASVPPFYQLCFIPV
State just the number; it will be interpreted in µM.

In [3]: df
Out[3]:
                                   molecule  measured_parameter  reported_measurement
0  C[C@@H](c1nc[n+]([O-])cc1F)[C@](O)(Cn1cncn1)c1ccc(F)cc1F [NO, voriconazole N-oxide]                  Ki                  5.47

Form field: reported Ki of C[C@@H](c1ncnc(O)c1F)[C@](O)(Cn1cncn1)c1ccc(F)cc1F [OH–VRC, hydroxyvoriconazole] 2.8

* * *

Recorded IC50 for the following compounds
- Assay Target: CYP3A4 (Homo sapiens, UniProt P08684)
- Assay Name: IC50 and IC50 shift on CYP3A4 marker reaction (midazolam 1-hydroxylation) in HLM
- Format: in vitro ADME
- Set-up: tissue Corning Inc; host or cells: pooled human liver microsomes (150 donors)
- Condition Details: without pre-incubation, 4.60 µM midazolam, HLM, read-out: IC50 (95% Confidence Interval)
State just the number; it will be interpreted in nM.

In [3]: df
Out[3]:
                                   compound  measured_parameter  unit_name  reported_measurement
0  C[C@@H](c1nc[n+]([O-])cc1F)[C@](O)(Cn1cncn1)c1ccc(F)cc1F [NO, voriconazole N-oxide]                IC50         nM                  4480

// next item, IC50 requested
Form field: reported IC50 of C[C@@H](c1ncnc(O)c1F)[C@](O)(Cn1cncn1)c1ccc(F)cc1F [OH–VRC, hydroxyvoriconazole] 1020

* * *

- Assay Target: CYP2C19 (Homo sapiens)
- Assay Name: IC50 and IC50 shift on CYP2C19 marker reaction (S-mephenytoin 4-hydroxylation) in HLM
- Assay type: in vitro ADME
- Design: tissue Corning Inc; host or cells: pooled human liver microsomes (150 donors)
- Condition Details: 30 min pre-incubation in the presence of NADPH, read-out: IC50 NADPH (+) (95% Confidence Interval)
Measured Parameter: IC50 (µM)
State just the number; it will be interpreted in µM.

Form field: reported IC50 of C[C@@H](c1ncnc(O)c1F)[C@](O)(Cn1cncn1)c1ccc(F)cc1F [OH–VRC, hydroxyvoriconazole] 33.6

* * *

- Assay Target: CYP2C19 (Homo sapiens, UniProt P33261)
- Sequence (P33261 whole entry): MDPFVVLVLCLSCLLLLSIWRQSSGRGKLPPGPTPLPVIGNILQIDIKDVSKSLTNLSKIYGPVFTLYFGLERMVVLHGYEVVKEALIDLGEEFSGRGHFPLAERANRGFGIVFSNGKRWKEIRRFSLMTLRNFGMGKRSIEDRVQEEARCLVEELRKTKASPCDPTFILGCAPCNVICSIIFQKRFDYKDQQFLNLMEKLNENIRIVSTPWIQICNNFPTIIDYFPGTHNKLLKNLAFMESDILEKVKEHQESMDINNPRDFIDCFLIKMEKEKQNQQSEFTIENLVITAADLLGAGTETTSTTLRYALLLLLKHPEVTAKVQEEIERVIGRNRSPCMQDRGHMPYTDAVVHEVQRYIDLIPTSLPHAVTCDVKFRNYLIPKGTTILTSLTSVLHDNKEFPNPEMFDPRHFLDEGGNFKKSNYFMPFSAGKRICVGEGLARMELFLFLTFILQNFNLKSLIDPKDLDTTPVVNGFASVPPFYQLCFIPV
- Assay Name: IC50 and IC50 shift on CYP2C19 marker reaction (S-mephenytoin 4-hydroxylation) in HLM
- Assay type: in vitro ADME
- Parameters: tissue Corning Inc; host or cells: pooled human liver microsomes (150 donors)
- Condition Details: without pre-incubation, […] S-mephenytoin, HLM, NO and OH–VRC estimates exceed applied concentrations (max 34.2 µM), read-out: IC50 (95% Confidence Interval)
- Procedure: Remaining activity (A, %) was calculated as the ratio of reaction velocities in the inhibited and non-inhibited incubations. IC50 and the steepness of the inhibition curve (H) were estimated by fitting the four-parameter inhibition model to the experimental data (Equation (9)). Maximum (Amax) and baseline activity (A0) were fixed to 100 and 0, respectively. […] (9) A,%=A0+Amax−A0/1+logCInhib/logIC50^H=100/1+logCInhib/logIC50^H […] Supplementary Section S1. […]
pIC50: −log10 of the molar value.
Measured Parameter: pIC50

>>> df
                                   molecule  reported_measurement
0  C[C@@H](c1ncnc(O)c1F)[C@](O)(Cn1cncn1)c1ccc(F)cc1F [OH–VRC, hydroxyvoriconazole]                < 4.47

// next item, pIC50 requested
Form field: reported pIC50 of C[C@@H](c1nc[n+]([O-])cc1F)[C@](O)(Cn1cncn1)c1ccc(F)cc1F [NO, voriconazole N-oxide] < 4.47

* * *

- Assay Name: Michaelis-Menten kinetics of voriconazole N-oxidation in human liver microsomes
- Type: in vitro ADME
- Condition Details: human, human liver microsomes, pH 7.5; HLM; ratio of Vmax and KM
Measured Parameter: microsomal CLint (µL/min/mg)
State just the number; it will be interpreted in µL/min/mg.

Form field: reported microsomal CLint of C[C@@H](c1ncncc1F)[C@](O)(Cn1cncn1)c1ccc(F)cc1F [VRC, voriconazole] 8.76

* * *

- Assay Target: UniProtKB P08684
- Assay Name: IC50 and IC50 shift on CYP3A4 marker reaction (midazolam 1-hydroxylation) in HLM
- Format: in vitro ADME
- Design: tissue Corning Inc; host or cells: pooled human liver microsomes (150 donors)
- Condition Details: human, human liver microsomes, pH 7.5, probe midazolam 1-hydroxylation (4.60 µM midazolam), 30 min pre-incubation in the absence of NADPH
Measured Parameter: IC50 shift
Give a plain numeric answer without units written out.

Form field: reported IC50 shift of C[C@@H](c1nc[n+]([O-])cc1F)[C@](O)(Cn1cncn1)c1ccc(F)cc1F [NO, voriconazole N-oxide] 0.644

* * *

- Assay Name: Michaelis-Menten kinetics of voriconazole N-oxidation in human liver microsomes
- Format: in vitro ADME
- Condition Details: human, human liver microsomes, pH 7.5; read-out: KM (95% CI)
Measured Parameter: Km (nM)
State just the number; it will be interpreted in nM.

Form field: reported Km of C[C@@H](c1ncncc1F)[C@](O)(Cn1cncn1)c1ccc(F)cc1F 2980
